- target.desc: Serine/threonine-protein kinase Chk1 (Homo sapiens, UniProt O14757)
- Sequence (O14757 whole entry): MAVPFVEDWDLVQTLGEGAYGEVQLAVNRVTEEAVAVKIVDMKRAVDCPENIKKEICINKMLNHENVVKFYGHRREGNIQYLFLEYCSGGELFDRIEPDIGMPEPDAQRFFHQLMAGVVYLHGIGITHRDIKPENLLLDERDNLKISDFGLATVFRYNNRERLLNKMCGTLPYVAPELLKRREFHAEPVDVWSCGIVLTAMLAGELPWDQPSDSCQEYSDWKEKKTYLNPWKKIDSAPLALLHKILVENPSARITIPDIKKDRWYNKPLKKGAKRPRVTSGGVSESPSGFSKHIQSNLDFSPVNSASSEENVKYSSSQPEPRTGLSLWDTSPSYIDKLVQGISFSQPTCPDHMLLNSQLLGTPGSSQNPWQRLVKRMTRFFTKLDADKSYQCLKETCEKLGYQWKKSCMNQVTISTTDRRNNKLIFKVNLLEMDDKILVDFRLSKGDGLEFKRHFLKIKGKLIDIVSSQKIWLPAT
pIC50: −log10 of the molar value.
assay.metric: pIC50

COc1cc2c(cc1OCCCN1CCOCC1)Cc1c-2n[nH]c1-c1ccc(-c2ccc(O)cc2)cc1 ... 8.22
COc1cc2c(cc1OC(C)CN(C)C)Cc1c-2n[nH]c1-c1ccc(-c2ccc(O)cc2)cc1 (centres undefined) ... 8.70
COc1cc2c(cc1OCCCN1CCCCC1)Cc1c-2n[nH]c1-c1ccc(-c2ccc(O)cc2)cc1 ... 8.40
COc1cc2c(cc1OCCn1ccnc1)Cc1c-2n[nH]c1-c1ccc(-c2ccc(O)cc2)cc1 ... 8.30

(P) COc1cc2c(cc1O)-c1[nH]nc(-c3ccc(-c4ccc(O)cc4)cc3)c1C2
(Q) COc1cc2c(cc1OCCc1cccnc1)Cc1c(-c3ccc(-c4ccc(O)cc4)cc3)n[nH]c1-2
(R) COc1cc2c(cc1OCCCN1CCN(c3cccc(Cl)c3)CC1)Cc1c-2n[nH]c1-c1ccc(-c2ccc(O)cc2)cc1
(S) COc1cc2c(cc1OCCC1CCCN1C)-c1[nH]nc(-c3ccc(-c4ccc(O)cc4)cc3)c1C2 (centres undefined)
(T) COc1cc2c(cc1OCc1ccncc1)-c1[nH]nc(-c3ccc(-c4ccc(O)cc4)cc3)c1C2
Query: List from greatest to least pIC50. Please reply with the labels ordered as requested. Many thanks.
Reply: S, P, R, Q, T
